All values here come from patent US20110028447A1.

- system_tested: UniProtKB P21554
- procedure_text: [35S] GTPγS binding on membranes of CHO cells expressing the human CB1 receptor (agonism)
- Type: biochemical
- Set-up: expressed in transfected cells; membrane preparation
- setup_conditions: GTPγS EC50, human CB1, CHO cell membranes
Please respond with yes when measured EC50 is strictly beneath 40 nM, and with no in all other cases.

1) CC(C)(C)[C@H](NC(=O)c1nn(Cc2ccc(F)cc2)c2c(F)cc(Cl)cc12)C(=O)NCC(N)=O: yes
2) CC(C)(C)[C@H](NC(=O)c1nn(Cc2ccc(C#N)cc2)c2ccccc12)C(=O)N1CCOCC1: no
3) CC(C)(C)[C@H](NC(=O)c1nn(Cc2ccc(F)cc2)c2ccccc12)C(=O)N1CCC(C#N)CC1: yes
4) CC(C)(C)[C@H](NC(=O)c1nn(Cc2ccc(F)cc2)c2ccccc12)C(=O)NCC1=NCCN1: no
5) CC(C)NC(=O)CNC(=O)[C@@H](NC(=O)c1nn(Cc2ccc(F)cc2)c2ccccc12)C(C)(C)C: yes
6) CC(C)(C)[C@H](NC(=O)c1nn(Cc2ccc(F)cc2)c2ccccc12)C(=O)NC[C@@H](O)[C@H](O)CO: no
7) CC(C)(C)C(NC(=O)c1nn(Cc2ccc(F)cc2)c2ccccc12)C(=O)NCC(N)=O (stereo not shown): yes

###

- system_tested: human CB1 receptor (Homo sapiens)
- Sequence (P21554 whole entry): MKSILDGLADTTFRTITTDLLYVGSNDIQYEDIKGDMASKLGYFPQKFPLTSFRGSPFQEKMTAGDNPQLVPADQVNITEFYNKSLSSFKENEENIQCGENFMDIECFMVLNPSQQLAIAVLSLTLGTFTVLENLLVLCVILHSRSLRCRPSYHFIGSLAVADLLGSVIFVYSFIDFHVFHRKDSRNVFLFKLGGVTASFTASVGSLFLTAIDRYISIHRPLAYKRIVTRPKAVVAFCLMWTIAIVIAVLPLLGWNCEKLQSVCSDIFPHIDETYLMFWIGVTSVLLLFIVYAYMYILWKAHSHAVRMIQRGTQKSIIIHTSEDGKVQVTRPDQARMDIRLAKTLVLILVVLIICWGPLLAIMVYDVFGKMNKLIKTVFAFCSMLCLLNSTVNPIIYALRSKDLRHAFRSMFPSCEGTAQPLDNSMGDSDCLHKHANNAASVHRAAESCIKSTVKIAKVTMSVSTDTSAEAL
- procedure_text: [35S] GTPγS binding on membranes of CHO cells expressing the human CB1 receptor (agonism)
- Format: biochemical
- Design: expressed in transfected cells; membrane preparation
- setup_conditions: GTPγS EC50, human CB1, CHO cell membranes
pEC50: −log10 of the molar value.
The entries below come with measured pEC50 values attached.
measured_endpoint: pEC50

1) CC(C)(C)C(NC(=O)c1nn(Cc2ccc(F)cc2)c2c(F)cccc12)C(N)=O (centres unmarked): 9.19
2) CC(C)C(NC(=O)c1nn(Cc2cccc(F)c2)c2ccccc12)C(N)=O (centres unmarked): 6.67
3) CC(C)(C)C(NC(=O)c1nn(Cc2ccc(C#N)cc2F)c2ccccc12)C(=O)NC1CC1 (centres unmarked): 7.34
4) CC(C)(C)[C@H](NC(=O)c1nn(Cc2ccc(C#N)cc2)c2ccccc12)C(=O)NC1CC1: 7.05
5) CC(C)(C)[C@H](NC(=O)c1nn(Cc2ccc(F)cc2)c2ccccc12)C(=O)N1C[C@@H](O)[C@@H](O)C1: 7.91
6) CC(C)(C)[C@H](NC(=O)c1nn(Cc2ccc(F)cc2)c2ccccc12)C(=O)N[C@H](CO)C(N)=O: 7.16
7) CC(C)(C)[C@H](NC(=O)c1nn(Cc2ccc(F)cc2)c2ccccc12)C(=O)N[C@@H](CO)C(N)=O: 7.50
8) CC(C)(C)C(NC(=O)c1nn(Cc2ccc(C#N)cc2F)c2ccccc12)C(=O)NCCNC(N)=O (centres unmarked): 7.11

###

- system_tested: human CB1 receptor (Homo sapiens)
- procedure_text: [35S] GTPγS binding on membranes of CHO cells expressing the human CB1 receptor (agonism)
- Assay type: biochemical
- Design: expressed in transfected cells; membrane preparation
- setup_conditions: GTPγS EC50, human CB1, CHO cell membranes
pEC50: −log10 of the molar value.
The entries below come with measured pEC50 values attached.
measured_endpoint: pEC50

1. CC(C)(C)[C@H](NC(=O)c1nn(Cc2ccc(C#N)cc2)c2ccccc12)C(=O)NCCCO: 6.08
2. Cc1cc(CNC(=O)c2nn(Cc3ccc(C#N)cc3)c3ccccc23)c(C)o1: 7.05
3. CC(C)(C)C(NC(=O)c1nn(Cc2ccc(C#N)cc2F)c2ccccc12)C(=O)NCCO (stereo not shown): 7.27
4. CC(C)(C)[C@H](NC(=O)c1nn(Cc2ccc(F)cc2)c2ccccc12)C(=O)N1C[C@@H](O)[C@H](O)C1: 9.02
